Each recorded value in this set is attributed to patent US20220106391A1.

Molecular target: T1, canine beta-NGF (cNGF) (canine, UniProt Q29074 110-229 (pig entry))
T1 construct: also called canine NGF; can NGF
T1 chain: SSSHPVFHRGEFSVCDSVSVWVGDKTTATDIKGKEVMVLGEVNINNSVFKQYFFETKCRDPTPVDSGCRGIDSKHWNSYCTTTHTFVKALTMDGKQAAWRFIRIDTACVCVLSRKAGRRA
Assay: SPR (Biacore), cNGF binding
Assay Readout: pKd
Reminder that pKd means the negative base-10 logarithm of the concentration expressed in mol/L.

The following binders have reported results that may help.
[
  {
    "Binder": "182m70 (antibody, V domains shown, 51 except in CDR2 (TSSLHG); 51 (CDR2 Pos. 1-6 = residues 51-56); also called Can-182-m70) VH: EVQLVESGGDLARPGGSLKLSCVVSGFTLTQYGINWVRQAPGKGLQWVTVIWATGATDYNSALKSRFTVSRDNAMNTVYLQMNSLRVEDTAVYYCARDGWWYATSWYFDVWGQGTLVTVSS VL: DIVMTQTPLSLSVSPGEPASISCKASQDINHYLNWFRQKPDGTVKLLIYYTSSLHGGVPSRFSGSGSGTDFTLRISRVEADDAGVYYCQQGDHFPRTFGQGT",
    "pKd": 8.31
  },
  {
    "Binder": "182m75 (antibody, V domains shown, 51 except in CDR2 (TSSLHV); 51 (CDR2 Pos. 1-6 = residues 51-56); also called Can-182-m75) VH: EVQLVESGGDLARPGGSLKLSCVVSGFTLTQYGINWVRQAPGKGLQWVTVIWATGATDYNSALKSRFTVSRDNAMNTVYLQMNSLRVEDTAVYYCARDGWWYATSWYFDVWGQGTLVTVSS VL: DIVMTQTPLSLSVSPGEPASISCKASQDINHYLNWFRQKPDGTVKLLIYYTSSLHVGVPSRFSGSGSGTDFTLRISRVEADDAGVYYCQQGDHFPRTFGQGT",
    "pKd": 8.69
  }
]

**Query** What value of pKd has been recorded for this entry: 182m43 (antibody, V domains shown, 51 except in CDR2 (THSLHN); 51 as printed; also called Can-182-m43) VH: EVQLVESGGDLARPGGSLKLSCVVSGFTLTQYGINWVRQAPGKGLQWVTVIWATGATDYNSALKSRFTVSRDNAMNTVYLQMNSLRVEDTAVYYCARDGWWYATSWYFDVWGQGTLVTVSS VL: DIVMTQTPLSLSVSPGEPASISCKASQDINHYLNWFRQKPDGTVKLLIYYTHSLHNGVPSRFSGSGSGTDFTLRISRVEADDAGVYYCQQGDHFPRTFGQGT
**Result** 8.36

**Query** May I ask what pKd has been recorded for 182m72 (antibody, V domains shown, 51 except in CDR2 (TSSLHQ); 51 (CDR2 Pos. 1-6 = residues 51-56); also called Can-182-m72) VH: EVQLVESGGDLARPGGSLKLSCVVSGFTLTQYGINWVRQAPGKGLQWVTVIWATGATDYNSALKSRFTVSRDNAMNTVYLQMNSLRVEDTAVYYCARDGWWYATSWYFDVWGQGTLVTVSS VL: DIVMTQTPLSLSVSPGEPASISCKASQDINHYLNWFRQKPDGTVKLLIYYTSSLHQGVPSRFSGSGSGTDFTLRISRVEADDAGVYYCQQGDHFPRTFGQGT ?
**Result** 10.13
